B1: ANKRD17 (parent)
chain: EVLRRLTSSVSCALDEAAAALTRM

- Variants of: B1
- protocol-text: protein stability index of a GFP-peptide fusion (GPS, HEK-293T) (PSI 1-6); higher = more stable;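 also: lentivirally expressed fusions sorted by FACS into six bins by GFP to DsRed ratio, PSI derived from sequencing read proportions per bin multiplied by bin number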
- reported-conditions: c terminus: a fixed tail appended
// reported protein stability index for each item listed
readout-label: protein stability index

| sequence-variant | obs-value |
| --- | --- |
| L3I | 1.23 |
| R4S | 1.05 |
| V10P | 1.29 |
